Molecular target: CD73 (Homo sapiens)
Sequence (P21589 27-549): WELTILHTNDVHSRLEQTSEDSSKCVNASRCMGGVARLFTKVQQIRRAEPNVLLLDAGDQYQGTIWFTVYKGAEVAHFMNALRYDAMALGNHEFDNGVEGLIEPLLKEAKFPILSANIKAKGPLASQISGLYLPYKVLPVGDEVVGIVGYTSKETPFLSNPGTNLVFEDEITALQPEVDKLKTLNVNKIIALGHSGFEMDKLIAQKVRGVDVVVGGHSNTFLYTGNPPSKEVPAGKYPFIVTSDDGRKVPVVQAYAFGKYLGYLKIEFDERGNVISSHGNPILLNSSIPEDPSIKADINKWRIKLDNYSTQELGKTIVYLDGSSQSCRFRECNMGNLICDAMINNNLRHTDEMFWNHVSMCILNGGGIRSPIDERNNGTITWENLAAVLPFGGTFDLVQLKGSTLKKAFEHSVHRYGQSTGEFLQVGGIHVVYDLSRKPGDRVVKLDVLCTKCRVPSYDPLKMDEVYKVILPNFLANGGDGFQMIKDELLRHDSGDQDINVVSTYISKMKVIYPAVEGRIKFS
Assay: Example A1: Biochemical Assay (CD73 inhibition, Malachite Green detection of AMP hydrolysis)
Details: Biochemical IC50, CD73 0.3208 nM, AMP 15 μM, Tris-HCl pH 7.4, Malachite Green, absorbance 620 nm
pIC50: −log10 of the molar value.
pIC50 by entry:

Compound	Target under test	pIC50
O=P(O)(O)C[P@](=O)(OC[C@H]1O[C@@H](n2nnc3c(NCc4ccccc4Cl)nc(Cl)nc32)[C@H](O)[C@@H]1O)Oc1ccccc1 [Example 32]	CD73 (Homo sapiens)	< 6.00
O=P(O)(O)C[P@@](=O)(OC[C@H]1O[C@@H](n2nnc3c(NCc4ccccc4Cl)nc(Cl)nc32)[C@H](O)[C@@H]1O)Oc1ccccc1 [Example 33]	CD73 (Homo sapiens)	6.00 to 7.00

* * *

Target: CD73 (Homo sapiens)
Sequence (P21589 27-549): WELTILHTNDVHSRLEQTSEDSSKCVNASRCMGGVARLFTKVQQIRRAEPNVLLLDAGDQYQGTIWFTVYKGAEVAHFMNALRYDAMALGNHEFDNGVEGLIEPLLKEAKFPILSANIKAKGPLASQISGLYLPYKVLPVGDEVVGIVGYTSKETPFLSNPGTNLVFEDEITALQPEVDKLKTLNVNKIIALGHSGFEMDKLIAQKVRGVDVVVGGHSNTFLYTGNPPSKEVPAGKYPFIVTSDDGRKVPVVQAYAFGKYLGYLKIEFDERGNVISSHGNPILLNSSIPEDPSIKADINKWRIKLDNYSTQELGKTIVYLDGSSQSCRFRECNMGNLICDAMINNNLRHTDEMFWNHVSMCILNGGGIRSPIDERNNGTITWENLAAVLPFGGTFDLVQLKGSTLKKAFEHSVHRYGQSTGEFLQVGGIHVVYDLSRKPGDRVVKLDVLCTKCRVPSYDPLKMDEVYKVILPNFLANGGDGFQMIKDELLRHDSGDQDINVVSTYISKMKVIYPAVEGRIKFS
Assay: Example A1: Biochemical Assay (CD73 inhibition, Malachite Green detection of AMP hydrolysis)
Settings: CD73 0.3208 nM, AMP 15 μM, Tris-HCl pH 7.4, Malachite Green, absorbance 620 nm; read-out: Biochemical IC50
Readout: IC50

Molecule	Readout	Result
O=P(O)(O)CP(=O)(OCc1ccccc1)OC[C@H]1O[C@@H](n2nnc3c(NCc4ccccc4Cl)nc(Cl)nc32)[C@H](O)[C@@H]1O (stereo partly shown)	IC50	< 100 nM
C[C@H](Nc1nc(Cl)nc2c1nnn2[C@@H]1O[C@H](COP(=O)(O)CP(=O)(O)O)[C@@H](O)[C@H]1O)c1ccccc1	IC50	< 100 nM
O=P(O)(O)CP(=O)(O)OC[C@H]1O[C@@H](n2nnc3c(N4CCC[C@@H]4c4ccccc4)nc(Cl)nc32)[C@H](O)[C@@H]1O	IC50	100 to 1000 nM
Cc1nn([C@@H]2O[C@H](COP(=O)(O)CP(=O)(O)O)[C@@H](O)[C@H]2O)c2nc(Cl)nc(NCc3ccccc3Cl)c12	IC50	< 100 nM
CN(Cc1ccccc1Cl)c1nc(Cl)nc2c1nnn2[C@@H]1C[C@H](COP(=O)(O)CP(=O)(O)O)[C@@H](O)[C@H]1O	IC50	< 100 nM
CN(c1nc(Cl)nc2c1nnn2[C@@H]1O[C@H](COP(=O)(O)CP(=O)(O)O)[C@@H](O)[C@H]1O)[C@H]1CCc2ccccc21	IC50	< 100 nM
O=P(O)(O)CP(=O)(O)OC[C@@H]1C[C@@H](O)[C@H](n2nnc3c(NCc4ccccc4Cl)nc(Cl)nc32)O1	IC50	< 100 nM

* * *

Target: CD73 (Homo sapiens, UniProt P21589)
Assay: Example A1: Biochemical Assay (CD73 inhibition, Malachite Green detection of AMP hydrolysis)
Details: CD73 0.3208 nM, AMP 15 μM, Tris-HCl pH 7.4, Malachite Green, absorbance 620 nm; read-out: Biochemical IC50
IC50 by entry:

Molecule	IC50
O=P(O)(O)CP(=O)(O)OC[C@H]1C[C@@H](n2nnc3c(NCc4ccccc4Cl)nc(Cl)nc32)[C@H](O)[C@@H]1O [Example 2]	100 to 1000 nM
O=P(O)(O)CP(=O)(O)OC[C@H]1O[C@@H](n2nnc3c(NCC4CC4)nc(Cl)nc32)[C@H](O)[C@@H]1O [Example 5]	100 to 1000 nM
O=P(O)(O)CP(=O)(O)OC[C@H]1O[C@@H](n2nnc3c(N4CCCC[C@@H]4c4ccccc4)nc(Cl)nc32)[C@H](O)[C@@H]1O [Example 10]	100 to 1000 nM
C[C@@]1(O)[C@@H](COP(=O)(O)CP(=O)(O)O)O[C@@H](n2ncc3c(NCc4ccccc4Cl)nc(Cl)nc32)[C@@H]1O [Example 40]	< 100 nM
CN(c1nc(Cl)nc2c1nnn2[C@@H]1O[C@H](COP(=O)(O)CP(=O)(O)O)[C@@H](O)[C@H]1O)[C@@H]1CCc2ccccc21 [Example 19]	< 100 nM
C[C@H](c1ccccc1)N(C)c1nc(Cl)nc2c1cnn2[C@@H]1O[C@H](COP(=O)(O)CP(=O)(O)O)[C@@H](O)[C@H]1O [Example 42]	< 100 nM

* * *

pIC50 by entry:
Target: CD73 (Homo sapiens, UniProt P21589)
Sequence (P21589 27-549): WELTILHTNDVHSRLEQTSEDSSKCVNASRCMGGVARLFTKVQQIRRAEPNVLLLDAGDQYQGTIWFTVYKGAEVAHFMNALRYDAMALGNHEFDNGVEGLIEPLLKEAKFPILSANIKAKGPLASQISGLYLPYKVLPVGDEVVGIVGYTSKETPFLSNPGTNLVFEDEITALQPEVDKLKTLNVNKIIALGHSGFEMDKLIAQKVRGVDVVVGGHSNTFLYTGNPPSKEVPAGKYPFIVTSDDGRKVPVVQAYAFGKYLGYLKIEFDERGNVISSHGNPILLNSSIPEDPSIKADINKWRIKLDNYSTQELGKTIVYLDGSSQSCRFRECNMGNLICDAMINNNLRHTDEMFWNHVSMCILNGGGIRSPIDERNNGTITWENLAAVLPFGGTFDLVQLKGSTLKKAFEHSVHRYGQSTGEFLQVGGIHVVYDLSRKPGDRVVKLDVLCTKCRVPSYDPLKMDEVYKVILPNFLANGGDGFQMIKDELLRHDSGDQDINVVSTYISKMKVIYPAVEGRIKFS
Test: Example A1: Biochemical Assay (CD73 inhibition, Malachite Green detection of AMP hydrolysis)
Conditions: CD73 0.3208 nM, AMP 15 μM, Tris-HCl pH 7.4, Malachite Green, absorbance 620 nm; read-out: Biochemical IC50
pIC50: −log10 of the molar value.

Compound	pIC50
COP(=O)(CP(=O)(O)O)OC[C@H]1O[C@@H](n2nnc3c(N(C)[C@H]4CCc5ccccc54)nc(Cl)nc32)[C@H](O)[C@@H]1O (stereo partly drawn)	> 7.00
C[C@@H](c1ccccc1)N(C)c1nc(Cl)nc2c1nnn2[C@@H]1O[C@H](COP(=O)(O)CP(=O)(O)O)[C@@H](O)[C@H]1O	> 7.00
COP(=O)(CP(=O)(O)O)OC[C@H]1O[C@@H](n2ncc3c(NCc4ccccc4Cl)nc(Cl)nc32)[C@H](O)[C@@H]1O (stereo partly drawn)	> 7.00

* * *

IC50 by entry:
Target: CD73 (Homo sapiens, UniProt P21589)
Experiment: Example A1: Biochemical Assay (CD73 inhibition, Malachite Green detection of AMP hydrolysis)
Settings: CD73 0.3208 nM, AMP 15 μM, Tris-HCl pH 7.4, Malachite Green, absorbance 620 nm; read-out: Biochemical IC50
Readout: IC50

Compound	Readout	Result
C[C@@H](Nc1nc(Cl)nc2c1cnn2[C@@H]1O[C@H](COP(=O)(O)CP(=O)(O)O)[C@@H](O)[C@H]1O)c1ccccc1Cl	IC50	100 to 1000 nM
CN(Cc1ccccc1)c1nc(Cl)nc2c1cnn2[C@@H]1O[C@H](COP(=O)(O)CP(=O)(O)O)C[C@H]1O	IC50	< 100 nM
O=P(O)(O)CP(=O)(OCC1CC1)OC[C@H]1O[C@@H](n2nnc3c(NCc4ccccc4Cl)nc(Cl)nc32)[C@H](O)[C@@H]1O (stereo partly drawn)	IC50	< 100 nM

Reference for the values: patent US11576922B2
